Test: Half life in cynomolgus monkey at 5 mg/kg, po
Assay type: ADME, organism-based, Macaca fascicularis
Design: dose 5 mg/kg, route oral
Conditions: in vivo
measured parameter: half-life (h)
The figure you give is taken to be in h; do not add the unit.

q: Quick one: half-life of Cn1c(=O)c(Oc2ccc(F)cc2F)cc2cnc(NC(CCO)CCO)nc21 [PAMAPIMOD] ?
a: 13.8

---

Test: Aqueous solubility of the compound in phosphate buffer at pH 6.5
Type: physicochemical
measured parameter: solubility (µg/mL)
The figure you give is taken to be in µg/mL; do not add the unit.

Field: example entries. Status: answers known.
Cn1c(=O)c(Oc2ccc(F)cc2F)cc2cnc(NC(CCO)CCO)nc21; 170
CC(=O)N1CCC(Nc2ncc3cc(Oc4ccc(F)cc4F)c(=O)n(C)c3n2)CC1; 14
Cn1c(=O)c(Oc2ccc(F)cc2F)cc2cnc(NC3CCOCC3)nc21; 6
C[C@H](CS(C)(=O)=O)Nc1ncc2cc(Oc3ccc(F)cc3F)c(=O)n(C)c2n1; 18

Then this compound:
q: Quick one: solubility of `C[C@@H](Cn1ncnn1)Nc1ncc2cc(Oc3ccc(F)cc3F)c(=O)n(C)c2n1` ?
a: 23

---

Test: Tmax in Beagle dog at 10 mg/kg, po
Format: ADME, organism-based, Canis lupus familiaris
Design: dose 10 mg/kg, route oral
Conditions: in vivo
measured parameter: Tmax
Please answer using a numeric value trailed by its unit.

q: Quick one: Tmax of Cl.Cn1c(=O)c(Oc2ccc(F)cc2F)cc2cnc(NC3CCOCC3)nc21 [R-1487 HYDROCHLORIDE] ?
a: 30 min

---

Assay: Clearance in cynomolgus monkey at 10 mg/kg, iv
Type: ADME, organism-based, Macaca fascicularis
Set-up: dose 10 mg/kg, route intravenous
Settings: in vivo
measured parameter: clearance (mL/min/kg)
The figure you give is taken to be in mL/min/kg; do not add the unit.

q: Quick one: clearance of `Cn1c(=O)c(Oc2ccc(F)cc2F)cc2cnc(NC3CCOCC3)nc21` ?
a: 3.05

---

Test: Permeability of the compound from basolateral to apical side of human Caco2 cells at 10 uM after 21 days
Assay type: ADME, cell-based
Settings: Caco-2, read-out: permeability
Each entry below carries its recorded Papp B→A at 10 µM.
The figure you give is taken to be in ×10⁻⁶ cm/s; do not add the unit.

Field: example entries. Status: answers known.
Cn1c(=O)c(Oc2ccc(F)cc2F)cc2cnc(NC(CCO)CCO)nc21; 22.6
CC(=O)N1CCC(Nc2ncc3cc(Oc4ccc(F)cc4F)c(=O)n(C)c3n2)CC1; 19.8
C[C@@H](Cn1ncnn1)Nc1ncc2cc(Oc3ccc(F)cc3F)c(=O)n(C)c2n1; 19.7
C[C@H](CS(C)(=O)=O)Nc1ncc2cc(Oc3ccc(F)cc3F)c(=O)n(C)c2n1; 22.4

Then this molecule:
q: Quick one: Papp B→A at 10 µM of `Cn1c(=O)c(Oc2ccc(F)cc2F)cc2cnc(NC3CCOCC3)nc21` ?
a: 23.7

---

Experiment: Volume of distribution at steady state in cynomolgus monkey at 5 mg/kg, iv
Format: ADME, organism-based, Macaca fascicularis
Parameters: dose 5 mg/kg, route intravenous
Settings: in vivo, read-out: Vdss
measured parameter: Vd (L/kg)
The figure you give is taken to be in L/kg; do not add the unit.

q: Quick one: Vd of `Cn1c(=O)c(Oc2ccc(F)cc2F)cc2cnc(NC(CCO)CCO)nc21` ?
a: 20.6

---

Assay: Cmax in Hanover-Wistar rat at 5 mg/kg, po
Assay type: ADME, organism-based
Parameters: dose 5 mg/kg, route oral
Conditions: in vivo
measured parameter: Cmax (ng/mL)
The figure you give is taken to be in ng/mL; do not add the unit.

q: Quick one: Cmax of Cn1c(=O)c(Oc2ccc(F)cc2F)cc2cnc(NC(CCO)CCO)nc21 [PAMAPIMOD] ?
a: 1340

---

Assay: Half life in cynomolgus monkey at 10 mg/kg, po
Assay type: ADME, organism-based, Macaca fascicularis
Design: dose 10 mg/kg, route oral
Conditions: in vivo
measured parameter: half-life

q: Quick one: half-life of `Cn1c(=O)c(Oc2ccc(F)cc2F)cc2cnc(NC3CCOCC3)nc21` ?
a: 22.5 h

---

Assay: Cmax in cynomolgus monkey at 5 mg/kg, po
Type: ADME, organism-based, Macaca fascicularis
Parameters: dose 5 mg/kg, route oral
Details: in vivo
measured parameter: Cmax (ng/mL)
The figure you give is taken to be in ng/mL; do not add the unit.

q: Quick one: Cmax of `Cn1c(=O)c(Oc2ccc(F)cc2F)cc2cnc(NC(CCO)CCO)nc21` ?
a: 1860

---

Biological target: Cytochrome P450 2C19 (Homo sapiens)
Sequence (P33261 whole entry): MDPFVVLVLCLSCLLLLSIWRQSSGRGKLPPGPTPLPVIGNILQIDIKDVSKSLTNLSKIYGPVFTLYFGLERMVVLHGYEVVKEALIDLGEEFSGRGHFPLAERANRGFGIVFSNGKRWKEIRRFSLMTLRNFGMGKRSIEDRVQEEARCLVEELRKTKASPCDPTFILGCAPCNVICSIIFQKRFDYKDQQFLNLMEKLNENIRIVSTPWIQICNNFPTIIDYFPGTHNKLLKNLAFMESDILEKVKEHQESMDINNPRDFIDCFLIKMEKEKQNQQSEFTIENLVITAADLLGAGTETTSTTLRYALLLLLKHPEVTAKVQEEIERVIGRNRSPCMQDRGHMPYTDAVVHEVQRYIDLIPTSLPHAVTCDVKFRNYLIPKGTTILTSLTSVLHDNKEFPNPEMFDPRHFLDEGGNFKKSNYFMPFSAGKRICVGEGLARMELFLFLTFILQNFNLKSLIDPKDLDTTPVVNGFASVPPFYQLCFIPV
pIC50: −log10 of the molar value.
Each entry below carries its recorded pIC50.

Cn1c(=O)c(Oc2ccc(F)cc2F)cc2cnc(NC3CCOCC3)nc21 [R-1487]; < 4.40

Then this compound:
q: Short answer please: pIC50, Cytochrome P450 2C19 (Homo sapiens), entry Cn1c(=O)c(Oc2ccc(F)cc2F)cc2cnc(NC(CCO)CCO)nc21 [PAMAPIMOD]
a: < 4.54

---

Assay: AUC (0 to last) in Hanover-Wistar rat at 5 mg/kg, po after 24 hrs
Assay type: ADME, organism-based
Set-up: dose 5 mg/kg, route oral, time 0 - last
Conditions: plasma
measured parameter: AUC(0-t) at 24 h (ng·h/mL)
The figure you give is taken to be in ng·h/mL; do not add the unit.

q: Quick one: AUC(0-t) at 24 h of `Cn1c(=O)c(Oc2ccc(F)cc2F)cc2cnc(NC(CCO)CCO)nc21` ?
a: 3130

---

Experiment: AUC (0 to last) in cynomolgus monkey at 5 mg/kg, po after 72 hrs
Assay type: ADME, organism-based, Macaca fascicularis
Set-up: dose 5 mg/kg, route oral, time 0 - last
Settings: plasma
measured parameter: AUC(0-t) at 72 h (ng·h/mL)
The figure you give is taken to be in ng·h/mL; do not add the unit.

q: Quick one: AUC(0-t) at 72 h of Cn1c(=O)c(Oc2ccc(F)cc2F)cc2cnc(NC(CCO)CCO)nc21 [PAMAPIMOD] ?
a: 9410

---

Test: Volume of distribution at steady state in Beagle dog at 10 mg/kg, iv
Type: ADME, organism-based, Canis lupus familiaris
Design: dose 10 mg/kg, route intravenous
Conditions: in vivo, read-out: Vdss
measured parameter: Vd (L/kg)
The figure you give is taken to be in L/kg; do not add the unit.

q: Quick one: Vd of Cl.Cn1c(=O)c(Oc2ccc(F)cc2F)cc2cnc(NC3CCOCC3)nc21 [R-1487 HYDROCHLORIDE] ?
a: 4.65

---

Target: UniProt P51812
Sequence (P51812 whole entry): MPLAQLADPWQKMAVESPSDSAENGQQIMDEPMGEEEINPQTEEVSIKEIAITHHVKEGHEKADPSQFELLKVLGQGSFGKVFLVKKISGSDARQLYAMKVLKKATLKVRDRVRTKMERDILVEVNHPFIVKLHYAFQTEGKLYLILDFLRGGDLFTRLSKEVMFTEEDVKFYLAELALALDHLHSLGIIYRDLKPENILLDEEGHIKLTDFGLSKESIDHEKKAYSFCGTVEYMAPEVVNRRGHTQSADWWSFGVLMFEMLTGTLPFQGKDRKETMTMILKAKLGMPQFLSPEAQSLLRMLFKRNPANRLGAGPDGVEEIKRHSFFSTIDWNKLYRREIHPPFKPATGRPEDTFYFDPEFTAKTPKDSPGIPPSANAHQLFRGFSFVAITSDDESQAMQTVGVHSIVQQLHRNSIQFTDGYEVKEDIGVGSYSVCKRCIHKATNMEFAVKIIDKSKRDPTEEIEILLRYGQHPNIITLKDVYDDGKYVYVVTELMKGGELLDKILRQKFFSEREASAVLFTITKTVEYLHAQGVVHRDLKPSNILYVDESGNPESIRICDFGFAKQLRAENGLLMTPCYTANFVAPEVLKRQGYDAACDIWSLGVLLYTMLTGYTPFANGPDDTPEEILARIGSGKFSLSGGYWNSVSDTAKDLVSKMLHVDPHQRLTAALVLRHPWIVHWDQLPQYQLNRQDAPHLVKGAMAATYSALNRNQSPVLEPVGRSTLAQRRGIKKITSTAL
measured parameter: pKd
Just so you know, pKd here is -log10 of the concentration in molar units; reply with that number alone.

q: Short answer please: pKd, UniProt P51812, entry `Cn1c(=O)c(Oc2ccc(F)cc2F)cc2cnc(NC(CCO)CCO)nc21`
a: 6.52

---

Target: Epithelial discoidin domain-containing receptor 1 (Homo sapiens, UniProt Q08345)
Sequence (Q08345 whole entry, the tested form may be a part): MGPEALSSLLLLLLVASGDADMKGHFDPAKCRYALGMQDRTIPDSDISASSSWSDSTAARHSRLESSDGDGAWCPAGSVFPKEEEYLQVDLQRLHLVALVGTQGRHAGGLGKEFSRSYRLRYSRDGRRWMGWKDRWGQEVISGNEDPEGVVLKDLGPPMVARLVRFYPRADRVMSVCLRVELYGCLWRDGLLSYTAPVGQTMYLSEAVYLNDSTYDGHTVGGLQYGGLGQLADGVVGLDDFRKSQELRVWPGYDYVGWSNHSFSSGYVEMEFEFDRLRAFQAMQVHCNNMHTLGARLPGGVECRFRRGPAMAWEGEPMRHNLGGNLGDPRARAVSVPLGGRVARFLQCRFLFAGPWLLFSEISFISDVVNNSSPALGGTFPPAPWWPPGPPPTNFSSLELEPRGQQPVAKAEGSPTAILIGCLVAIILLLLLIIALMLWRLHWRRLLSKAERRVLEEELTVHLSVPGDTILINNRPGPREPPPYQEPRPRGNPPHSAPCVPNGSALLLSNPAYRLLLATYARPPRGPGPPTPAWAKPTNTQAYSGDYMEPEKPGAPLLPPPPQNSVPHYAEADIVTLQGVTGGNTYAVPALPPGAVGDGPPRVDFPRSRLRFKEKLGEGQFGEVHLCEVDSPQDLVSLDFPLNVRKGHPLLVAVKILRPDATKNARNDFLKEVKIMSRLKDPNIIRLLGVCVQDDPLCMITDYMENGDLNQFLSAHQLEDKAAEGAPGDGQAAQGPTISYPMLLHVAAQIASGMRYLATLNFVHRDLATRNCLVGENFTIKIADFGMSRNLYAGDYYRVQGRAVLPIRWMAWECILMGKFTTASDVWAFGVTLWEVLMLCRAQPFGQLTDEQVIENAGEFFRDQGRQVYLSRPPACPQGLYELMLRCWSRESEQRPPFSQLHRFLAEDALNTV
Each entry below carries its recorded Kd.

Cn1c(=O)c(Oc2ccc(F)cc2F)cc2cnc(NC3CCOCC3)nc21; 0.27 µM

Then this compound:
q: Quick one: Kd of `Cn1c(=O)c(Oc2ccc(F)cc2F)cc2cnc(NC(CCO)CCO)nc21` ?
a: > 1 µM

---

Experiment: Half life in Hanover-Wistar rat at 5 mg/kg, po
Type: ADME, organism-based
Parameters: dose 5 mg/kg, route oral
Settings: in vivo
measured parameter: half-life (h)
The figure you give is taken to be in h; do not add the unit.

q: Quick one: half-life of Cn1c(=O)c(Oc2ccc(F)cc2F)cc2cnc(NC(CCO)CCO)nc21 [PAMAPIMOD] ?
a: 4.04

---

Experiment: Permeability of the compound from apical to basolateral side of human Caco2 cells at 10 uM after 21 days
Format: ADME, cell-based
Conditions: Caco-2, read-out: permeability
Label T when Papp A→B at 10 µM is at or above 30 ×10⁻⁶ cm/s; otherwise label F.

Illustrative cases are given below, each with its answer.
C[C@H](CS(C)(=O)=O)Nc1ncc2cc(Oc3ccc(F)cc3F)c(=O)n(C)c2n1; F
Cn1c(=O)c(Oc2ccc(F)cc2F)cc2cnc(NC(CCO)CCO)nc21 [PAMAPIMOD]; F
Cn1c(=O)c(Oc2ccc(F)cc2F)cc2cnc(NC3CCOCC3)nc21 [R-1487]; T

We now examine a further compound.
q: Hi, just wondering whether `CC(=O)N1CCC(Nc2ncc3cc(Oc4ccc(F)cc4F)c(=O)n(C)c3n2)CC1` shows Papp A→B at 10 µM of 30 ×10⁻⁶ cm/s or higher.
a: F

---

Assay: AUC (infinity) in cynomolgus monkey at 10 mg/kg, po
Format: ADME, organism-based, Macaca fascicularis
Design: time infinity, dose 10 mg/kg, route oral
Details: plasma
measured parameter: AUC(0-inf) (ng·h/mL)
The figure you give is taken to be in ng·h/mL; do not add the unit.

q: Quick one: AUC(0-inf) of Cn1c(=O)c(Oc2ccc(F)cc2F)cc2cnc(NC3CCOCC3)nc21 [R-1487] ?
a: 29400
